B1: tRNA (parent)
chain: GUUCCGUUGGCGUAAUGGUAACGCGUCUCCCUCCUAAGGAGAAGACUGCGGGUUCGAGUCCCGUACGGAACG

Variants of: B1
Experiment: yeast fitness relative to wild type (ratio to wild type); higher = fitter; tRNA-Arg(CCU), competitive growth, 37 C, YPD
Fewer inactive variants are shown than the library holds.
Each entry below lists one item and its recorded yeast fitness value.
// keep it numeric: no unit symbol after the value

Below: 3 variants and their reported yeast fitness.
Exercise: Please look up its yeast fitness: A42C U47C A69U
Key: 0.821

Exercise: Please look up its yeast fitness: C11A C27U
Key: 0.646

Exercise: Please look up its yeast fitness: G10A A40U
Key: 0.683

Further cases:
Exercise: Please look up its yeast fitness: A20U U28C
Key: 0.934

Exercise: Please look up its yeast fitness: A21C A45C C49U
Key: 0.582

Exercise: Please look up its yeast fitness: C31U G50A A70U
Key: 0.677
